# measuredOn: endogenous CETP from serum (Homo sapiens, UniProt P11597)
# Construct: yielding a concentration of approximately 15 nM endogenous CETP in the assay; from tissue; host or cells: human serum
# Sequence (P11597 18-493): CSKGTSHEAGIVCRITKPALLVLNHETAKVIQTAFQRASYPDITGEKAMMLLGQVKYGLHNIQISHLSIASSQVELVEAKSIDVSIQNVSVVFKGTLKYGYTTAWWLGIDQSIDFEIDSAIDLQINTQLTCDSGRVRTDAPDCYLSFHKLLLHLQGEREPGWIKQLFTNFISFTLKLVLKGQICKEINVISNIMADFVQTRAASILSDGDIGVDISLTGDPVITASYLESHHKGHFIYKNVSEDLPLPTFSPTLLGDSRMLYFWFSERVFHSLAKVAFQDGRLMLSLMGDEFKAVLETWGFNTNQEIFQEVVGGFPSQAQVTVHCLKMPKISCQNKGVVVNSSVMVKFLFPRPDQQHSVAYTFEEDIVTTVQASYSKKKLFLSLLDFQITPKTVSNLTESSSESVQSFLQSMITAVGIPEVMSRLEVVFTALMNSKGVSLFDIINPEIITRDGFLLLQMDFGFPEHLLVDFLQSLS
# measurementNotes: RTA assay in 95% human serum (CETP-catalyzed CE and TG transfer, endogenous CETP from serum)
# Type: biochemical
# conditionNotes: read-out: IC50
quantityKind: pIC50
Answers are plain numbers, as −log10 of the molar value.

Check out these entries, answers already filled in.
COc1ncc(-c2ccc(C(=O)O)cc2C)cc1-c1ccc(C(F)(F)F)cc1CN1C(=O)S[C@H](c2cc(C(F)(F)F)cc(C(F)(F)F)c2)[C@@H]1C [Example 7]
6.93
COc1ncc(-c2c(C)cc(C(=O)O)cc2C)cc1-c1ccc(C(F)(F)F)nc1CN1C(=O)S[C@H](c2cc(C(F)(F)F)cc(C(F)(F)F)c2)[C@@H]1C [Example 5]
7.60

Query: What does the data say about its pIC50? Entry: COc1ccc(-c2ccc(C(=O)O)cc2C)cc1-c1ccc(C(F)(F)F)nc1CN1C(=O)S[C@H](c2cc(C(F)(F)F)cc(C(F)(F)F)c2)[C@@H]1C [Example 2]
Result: 7.41
